// data source = PubChem BioAssay AID651965

# TESTED_TARGET: ATP-dependent Clp protease proteolytic subunit (Bacillus subtilis (strain 168)) (UniProt P80244)
# Sequence (P80244 whole entry, looked up): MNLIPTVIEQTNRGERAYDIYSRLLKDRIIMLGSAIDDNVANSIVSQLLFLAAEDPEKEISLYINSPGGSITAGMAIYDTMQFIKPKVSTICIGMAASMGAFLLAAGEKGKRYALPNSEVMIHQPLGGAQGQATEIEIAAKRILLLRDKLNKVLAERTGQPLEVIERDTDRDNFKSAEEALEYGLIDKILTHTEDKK
# ASSAY_NOTES: qHTS Assay for Activators of ClpP; further: potency means the concentration at half of the fitted maximal effect; further: the source files actives as falling curves though it sought activators and does not explain the sign; nearly all actives have a fitted effect of over 65% in size
# TEST_PARAMETERS: purified B. subtilis ClpP, FRET peptide cleavage, 20 min; series mostly up to 57.5 µM
About 6,400 (1.9%) of roughly 340,000 compounds were called active. Another 4% or so got no clear call; they are omitted. The entries come from a sample that favours actives as a whole.
REPORTED_ENDPOINT: Potency

Use the examples below as a reference point.
[Q] Returns the measured Potency for the input compound. Input: COC(=O)Cc1ccc(OC2(C)CCN(Cc3ccc4c(c3)OCCO4)C2)cc1 (configuration not stated)
[A] inactive

[Q] Returns the measured Potency for the input compound. Input: `CCOC(=O)c1cc2cc(C)ccc2[nH]1`
[A] 14.1 µM (active)

[Q] Returns the measured Potency for the input compound. Input: `Cc1ccc(-c2nc3ccc(Br)cn3c2Cc2ccccc2C(F)(F)F)cc1`
[A] inactive

[Q] Returns the measured Potency for the input compound. Input: `Cc1ccc2[nH]c(=O)c(COC(=O)c3ccccn3)cc2c1`
[A] inactive

[Q] Returns the measured Potency for the input compound. Input: `Cc1cccc(C(=O)NC(=S)N2CCN(c3ccc([N+](=O)[O-])cc3)CC2)c1`
[A] inactive

[Q] Returns the measured Potency for the input compound. Input: CC1CN(C(=O)c2cccc(NS(=O)(=O)c3ccc(Br)cc3)c2)CC(C)O1 (configuration not stated)
[A] inactive

Next compound, Potency to be filled in.
[Q] Returns the measured Potency for the input compound. Input: CCC(=O)N1CCCC1(C)C(=O)Nc1ccc2c(c1)CCN2C(C)=O (configuration not stated)
[A] inactive
